# Test system: A431
# Assay: whole-cell filipin (free cholesterol) integrated intensity, Z-score; higher = more cholesterol staining
# Test Parameters: compound concentration in added solution (µM; 5 µl added to 20 µl cells): 10; 18 h
Structures can show the parent of a compound that is named as a salt.

Compound | Target | whole-cell filipin (z-score)
CCN(CC)CCN[C@@H](C(=O)OCCC(C)C)c1ccccc1 [Camylofine chlorhydrate] | A431 | -0.446
Nc1ncnc2c1ncn2C1OC(COP(=O)(O)O)C(O)C1O (stereo unspecified) [Adenosine 5'-monophosphate monohydrate] | A431 | -0.666
CCN1CCN(C(=O)N[C@@H](C(=O)N[C@@H]2C(=O)N3C(C(=O)O)=C(CSc4nnnn4C)CS[C@H]23)c2ccc(O)cc2)C(=O)C1=O [Cefoperazone dihydrate] | A431 | -0.712
O=c1[nH]c(=O)n([C@H]2C[C@H](O)[C@@H](CO)O2)cc1C(F)(F)F | A431 | 3.04
CC12CC3CC(C)(C1)CC(N)(C3)C2 [Memantine Hydrochloride] | A431 | 0.233
C=CCOC(Cn1ccnc1)c1ccc(Cl)cc1Cl (stereo unspecified) | A431 | 0.571
Cc1c(NC(C)C)c(=O)n(-c2ccccc2)n1C [Isopyrin hydrochloride] | A431 | -0.495
NC(=O)c1ccc[n+]([C@@H]2O[C@H](COP(=O)([O-])OP(=O)(O)OC[C@H]3O[C@@H](n4cnc5c(N)ncnc54)[C@H](O)[C@@H]3O)[C@@H](O)[C@H]2O)c1 [Nadide] | A431 | -0.714
CCCCOc1ccc(CC(=O)NO)cc1 | A431 | -0.337
CC(C)NCC(O)c1cc(O)cc(O)c1 (stereo unspecified) [Metaproterenol sulfate, orciprenaline sulfate] | A431 | -0.271
CN(CCOc1ccc(CC2SC(=O)NC2=O)cc1)c1ccccn1 (stereo unspecified) [Rosiglitazone Hydrochloride] | A431 | 0.193
C=CC[N@@+]12CC[C@@]34c5ccccc5N5/C=C6/[C@H]7C[C@H]8[C@@]9(CC[N@@+]8(CC=C)C/C7=C/CO)c7ccccc7N(/C=C(/[C@@H](C[C@@H]31)/C(=C\CO)C2)[C@H]54)[C@@H]69 [Alcuronium chloride] | A431 | 0.269
CC(=O)OCC(=O)NCCCOc1cccc(CN2CCCCC2)c1 [Roxatidine Acetate HCl] | A431 | -0.731
COc1ccc(Cl)cc1C(=O)NCCc1ccc(S(=O)(=O)NC(=O)NC2CCCCC2)cc1 [Glibenclamide] | A431 | -0.573
CCCCNc1cc(C(=O)O)cc(S(N)(=O)=O)c1Oc1ccccc1 [Bumetanide] | A431 | -0.507
CS(=O)(=O)OCCCCOS(C)(=O)=O | A431 | -0.466

Source: the supplement of paper PMC6607015
